Measured composite z-score accompanies every entry in the list below.
Experiment: binders of probe aFSTL3 on microarray, primary screen, stem cell growth factor project, biochemical, small-molecule microarray, fluorescence 635/667 (AID 1064);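 also: measures binding of the biotinylated anti-FSTL3 antibody to printed compounds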
Details: higher = more signal
measurement name: composite z-score

[[record]]
compound = "O=C1OCCC/C=C\\[C@H]2OC34C=CCN(Cc5ccccc5)C(=O)[C@H]3N(CCCCCCO)C(=O)[C@@H]4C12 (stereo partly drawn)"
experimental_value = 1.26

[[record]]
compound = "[N-]=[N+]=NCc1ccccc1[C@@H]1OC(c2ccc(OCCCO)cc2)=N[C@]1(Cc1ccccc1N=[N+]=[N-])C(=O)N1CCOCC1"
experimental_value = 0.36

[[record]]
compound = "COc1ccc([Si](C)(C)[C@H]2[C@H](CCn3cc([C@H](O)c4ccccc4)nn3)O[C@@]3(C(=O)N(Cc4cccc(N5CCOC5=O)c4)c4ccccc43)[C@@H]2C)cc1"
experimental_value = -0.218


====

Assay: CREB reporter modulators without forskolin, primary screen, cell-based, PC12, CRE-LacZ reporter, unstimulated (AID 1145)
Conditions: no forskolin, luminescence, 4.5 h, higher = more signal, called active from +8 up or from −8 down
Short version: z-score at least 0.1 is yes, less is no.

[[record]]
compound = "C=CCOC(=O)[C@@H]1[C@H]2C(=O)O[C@H](c3ccccc3)[C@H](c3ccccc3)N2[C@H](c2ccc(OCCOC(=O)[C@@H]3C[C@@H]4C(=O)N[C@@H](Cc5ccccc5)C(=O)N4[C@@H]3c3ccc(O)cc3)cc2)[C@@]12C(=O)Nc1ccc(I)cc12"
assigned_class = "no"

[[record]]
compound = "Cc1ccc(S[C@]2(C(=O)NCCN3CCOCC3)CC(=O)N(Cc3ccccc3)[C@@H]2c2ccc(CO)cc2I)cc1"
assigned_class = "no"

[[record]]
compound = "O=C(NCC(F)(F)F)[C@@H]1c2ccccc2C(=O)N(C2CCCCC2)[C@H]1c1ccc(CO)cc1"
assigned_class = "yes"

[[record]]
compound = "Cc1ccc(S[C@]2(C(=O)NC3CC3)CC(=O)N(C3Cc4ccccc4C3)[C@@H]2c2ccc(CO)cc2)cc1"
assigned_class = "yes"

[[record]]
compound = "Cc1ccc(C(C)CC(O)C2C=CC3C(=O)N(c4ccccc4)C(=O)C3N2Nc2ccc([N+](=O)[O-])cc2)o1 (configuration not stated)"
assigned_class = "yes"

[[record]]
compound = "O=C1O[C@H](c2ccccc2)[C@H](c2ccccc2)N2[C@H]1[C@@H](C(=O)O)[C@]1(C(=O)Nc3ccc(C#CCCO)cc31)[C@H]2c1ccc(O)cc1"
assigned_class = "no"

[[record]]
compound = "O=C1NC(=O)C2C1C=CC(C(O)Cc1ccccc1)N2Nc1ccc(Cl)cc1Cl (configuration not stated)"
assigned_class = "yes"


====

Assay: basal MM1S mitochondrial membrane potential changes, profiling panel, cell-based, JC-1 fluorescence, 24 h, 100 nL compound (AID 1170); also: test concentration not given here
Details: higher = more signal
Binary classification by z-score, with -0.1 as an inclusive lower bound for Satisfied; all other cases are Not satisfied.

[[record]]
molecule = "C=CCNC(=O)[C@H]1[C@@H]2C(=O)O[C@@H](c3ccccc3)[C@@H](c3ccccc3)N2[C@@H](c2ccc(OCCO)cc2)[C@]12C(=O)Nc1ccc(C#CC3=CCCCC3)cc12"
assigned_class = "Not satisfied"

[[record]]
molecule = "COc1ccc(C(O)C2C=CC3C(=O)NC(=O)C3N2Nc2ccccn2)c2ccccc12 (stereo unspecified)"
assigned_class = "Not satisfied"

[[record]]
molecule = "COc1ccc([Si](C)(C)[C@H]2[C@H](CC(=O)N3CCC[C@H]3CO)O[C@@]3(C(=O)N(Cc4cccc(N5C(=O)c6cccc7cccc5c67)c4)c4ccccc43)[C@@H]2C)cc1"
assigned_class = "Not satisfied"

[[record]]
molecule = "COC(=O)c1c(CC[C@@H](CO)NC(=O)N[C@@H](C)Cn2cc(C3(O)CCCCC3)nn2)oc(C(C)=O)c1C(=O)OC"
assigned_class = "Satisfied"

[[record]]
molecule = "COCCOC(=O)N1C(=O)[C@@]2(c3ccccc31)[C@H](c1ccc(O)cc1)N1[C@H](c3ccccc3)[C@H](c3ccccc3)OC(=O)[C@H]1[C@@H]2C(=O)NC[C@H](O)c1ccccc1"
assigned_class = "Not satisfied"

